Literature survey of IC50 (system: Protein deacetylase HDAC6 (Homo sapiens)).

compound	IC50
CC1(C)CCC(CN2CCN(c3ccc(C(=O)NS(=O)(=O)c4ccc(NCc5ccc(C(=O)Nc6ccccc6N)cc5)c([N+](=O)[O-])c4)c(Oc4cnc5[nH]ccc5c4)c3)CC2)=C(c2ccc(Cl)cc2)C1	> 30000 nM
O=C(CCCCCCC(=O)NC[C@H]1CN(c2ccc(N3CCOCC3)c(F)c2)C(=O)O1)NO	304 nM
CC1(C)CCC(CN2CCN(c3ccc(C(=O)NS(=O)(=O)c4ccc(NCCNc5ncc(C(=O)NO)cn5)c([N+](=O)[O-])c4)c(Oc4cnc5[nH]ccc5c4)c3)CC2)=C(c2ccc(Cl)cc2)C1	149 nM
O=C(NO)c1ccc(CNC[C@H]2CN(c3ccc(N4CCOCC4)c(F)c3)C(=O)O2)cc1	61 nM
O=C(CCCCCCNC(=O)c1ccc(N(C(=O)CCl)C(C(=O)NCc2ccccc2)c2ccc(Cl)c(Cl)c2)cc1)NO (centres unmarked)	7 nM

----------
Literature survey of pIC50 (system: Protein deacetylase HDAC6 (Homo sapiens, UniProt Q9UBN7)).
pIC50: −log10 of the molar value.

sampleSmiles	pIC50
Cc1cccc2c(=O)c3c(NCCCCCC(=O)NO)ccc([N+](=O)[O-])c3[nH]c12	8.13
CC1(C)CCC(CN2CCN(c3ccc(C(=O)NS(=O)(=O)c4ccc(NCC5CCN(c6ccc(C(=O)NO)cc6)CC5)c([N+](=O)[O-])c4)c(Oc4cnc5[nH]ccc5c4)c3)CC2)=C(c2ccc(Cl)cc2)C1	5.06
Cc1cccc2nc(SCc3ccc(C(=O)NO)cc3)n(-c3ccccc3)c(=O)c12	6.70
CCOc1c(Nc2ccc(F)cc2)c(=O)c1=O	5.64
